# System: D-566MG
# Protocol: cells
# Assay type: functional, cell-based
# Condition parameters: Homo sapiens
Reported IC50 values follow for various compounds
Observation type: IC50 (nM)

>  <Given smiles>
CS(=O)(=O)N1CCN(Cc2cc3nc(-c4cccc5[nH]ncc45)nc(N4CCOCC4)c3s2)CC1

>  <System tested>
D-566MG

>  <Operator>
=

>  <Val>
1630

$$$$
>  <Given smiles>
Cc1ccc(-n2nc(C(C)(C)C)cc2NC(=O)Nc2ccc(OCCN3CCOCC3)c3ccccc23)cc1

>  <System tested>
D-566MG

>  <Operator>
>

>  <Val>
10000

$$$$

---

# Tested on: Huh-7;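 note: HuH-7 cell growth inhibition, read out with a cell viability assay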
# Protocol: cells
# Type: functional, cell-based
# Condition parameters: Homo sapiens
# Description: SANGER: Inhibition of human HuH-7 cell growth in a cell viability assay.
Reported IC50 values follow for various molecules

>  <Given smiles>
Cc1ccc(C(=O)Nc2ccc(CN3CCN(C)CC3)c(C(F)(F)F)c2)cc1C#Cc1cnc2cccnn12

>  <Operator>
=

>  <IC50 / µM>
0.278

$$$$
>  <Given smiles>
O=C(NCCCNc1nc(Nc2cccc(NC(=O)N3CCCC3)c2)ncc1I)c1cccs1

>  <Operator>
=

>  <IC50 / µM>
4.82

$$$$
>  <Given smiles>
CC1=C(/C=C/C(C)=C/C=C/C(C)=C/C(=O)O)C(C)(C)CCC1

>  <Operator>
>

>  <IC50 / µM>
10

$$$$
>  <Given smiles>
COC(=O)[C@H](CCSC)NC(=O)c1ccc(NC[C@@H](N)CS)cc1-c1ccccc1

>  <Operator>
>

>  <IC50 / µM>
1.02

$$$$
>  <Given smiles>
NC1(c2ccc(-c3nc4ccn5c(=O)[nH]nc5c4cc3-c3ccccc3)cc2)CCC1

>  <Operator>
=

>  <IC50 / µM>
3.09

$$$$
>  <Given smiles>
NC(=O)c1ccc(N(C(N)=O)c2c(F)cccc2F)nc1-c1ccc(F)cc1F

>  <Operator>
>

>  <IC50 / µM>
2

$$$$

---

Reported IC50 values follow for various compounds
# Test system: HAL-01
# Protocol: cells
# Assay type: functional, cell-based, Homo sapiens
# Condition parameters: Homo sapiens, HAL-01
# Description: SANGER: Inhibition of human HAL-01 cell growth in a cell viability assay.

>  <Compound>
NC1(c2ccc(-c3nc4ccn5c(=O)[nH]nc5c4cc3-c3ccccc3)cc2)CCC1

>  <Operator>
=

>  <IC50 (nM)>
621

$$$$
>  <Compound>
O=C(NCCCNc1nc(Nc2cccc(NC(=O)N3CCCC3)c2)ncc1I)c1cccs1

>  <Operator>
>

>  <IC50 (nM)>
5000

$$$$
>  <Compound>
C=CC(=O)N1CCCC(Nc2nc(Nc3ccc(N(C)C(=O)CC)cc3)nc3[nH]cnc23)C1 (stereo not given)

>  <Operator>
>

>  <IC50 (nM)>
10200

$$$$
>  <Compound>
CN(C)CCOc1ccc(-c2nc(-c3ccncc3)c(-c3ccc4c(c3)CC/C4=N\O)[nH]2)cc1

>  <Operator>
=

>  <IC50 (nM)>
2930

$$$$
>  <Compound>
Cc1ccc(NC(=O)c2ccc(CN3CCN(C)CC3)cc2)cc1Nc1nccc(-c2cccnc2)n1

>  <Operator>
>

>  <IC50 (nM)>
2000

$$$$
>  <Compound>
Cc1ccc(C(=O)Nc2ccc(CN3CCN(C)CC3)c(C(F)(F)F)c2)cc1C#Cc1cnc2cccnn12

>  <Operator>
>

>  <IC50 (nM)>
512

$$$$
>  <Compound>
NC(=O)c1cccc(-c2cc(Nc3ccc(OC(F)(F)F)cc3)ncn2)c1

>  <Operator>
>

>  <IC50 (nM)>
1280

$$$$
>  <Compound>
CC(C)C[C@H](NC(=O)[C@H](Cc1ccccc1)NC(=O)c1cnccn1)B(O)O

>  <Operator>
=

>  <IC50 (nM)>
1.18

$$$$
>  <Compound>
O=C1NC(=O)c2c1c(-c1ccccc1Cl)cc1[nH]c3ccc(O)cc3c21

>  <Operator>
=

>  <IC50 (nM)>
1160

$$$$
>  <Compound>
Nc1ccccc1NC(=O)c1ccc(CNC(=O)OCc2cccnc2)cc1

>  <Operator>
=

>  <IC50 (nM)>
1170

$$$$
